Value source: patent US11034672B1

- target_desc: HER2 YVMA (Homo sapiens, UniProt P04626, INS775YVMA)
- Construct: expressed in transfected cells; host or cells: BaF3 (murine pro-B)
- Sequence (P04626 with tags, fused parts or gaps INS775YVMA): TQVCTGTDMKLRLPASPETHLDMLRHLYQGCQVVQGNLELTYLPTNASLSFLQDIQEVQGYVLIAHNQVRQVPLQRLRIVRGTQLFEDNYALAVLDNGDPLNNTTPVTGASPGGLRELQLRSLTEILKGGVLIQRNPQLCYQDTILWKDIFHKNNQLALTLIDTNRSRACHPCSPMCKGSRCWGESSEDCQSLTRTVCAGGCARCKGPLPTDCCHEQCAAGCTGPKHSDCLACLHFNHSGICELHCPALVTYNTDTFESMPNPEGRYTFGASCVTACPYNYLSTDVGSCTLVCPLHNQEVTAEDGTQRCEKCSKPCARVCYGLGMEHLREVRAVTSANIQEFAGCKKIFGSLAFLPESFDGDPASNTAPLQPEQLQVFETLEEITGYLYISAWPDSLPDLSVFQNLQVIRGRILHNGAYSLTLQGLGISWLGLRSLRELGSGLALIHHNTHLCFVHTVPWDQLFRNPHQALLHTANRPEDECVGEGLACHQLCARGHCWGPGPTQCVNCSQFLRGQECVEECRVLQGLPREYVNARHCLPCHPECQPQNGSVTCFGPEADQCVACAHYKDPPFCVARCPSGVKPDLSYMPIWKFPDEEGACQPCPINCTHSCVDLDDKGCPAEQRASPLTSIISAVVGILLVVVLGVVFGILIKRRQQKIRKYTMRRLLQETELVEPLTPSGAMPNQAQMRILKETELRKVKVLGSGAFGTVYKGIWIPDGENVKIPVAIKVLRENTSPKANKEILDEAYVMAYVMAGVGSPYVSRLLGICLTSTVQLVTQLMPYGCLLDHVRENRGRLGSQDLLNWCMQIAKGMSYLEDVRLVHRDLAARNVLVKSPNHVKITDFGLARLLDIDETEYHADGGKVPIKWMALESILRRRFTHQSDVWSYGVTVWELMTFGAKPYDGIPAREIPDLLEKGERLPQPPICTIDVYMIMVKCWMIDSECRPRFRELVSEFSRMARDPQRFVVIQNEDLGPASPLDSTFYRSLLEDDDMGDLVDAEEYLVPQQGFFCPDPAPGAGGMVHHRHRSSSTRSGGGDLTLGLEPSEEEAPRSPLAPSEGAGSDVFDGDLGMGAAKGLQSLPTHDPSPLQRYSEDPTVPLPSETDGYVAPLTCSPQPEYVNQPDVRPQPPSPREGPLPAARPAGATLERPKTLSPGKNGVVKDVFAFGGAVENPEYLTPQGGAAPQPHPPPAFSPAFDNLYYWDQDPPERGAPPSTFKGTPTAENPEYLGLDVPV
- assay_procedure: Activity for inhibiting HER2 (Table B), HER2 YVMA
- Type: cell-based
- measurement_conditions: read-out: HER2 YVMA, potency code (IC50)
- Experimental: EC50 values were determined with the same application.
pIC50: −log10 of the molar value.

{"columns": ["compound", "pIC50"],
 "data": [
  ["C=CC(=O)Nc1cc2c(Nc3ccc(OCc4ccccn4)nc3)ncnc2cc1OCCN1CCOCC1 [compound 71]", "< 6.00"],
  ["C=CC(=O)Nc1cc2c(Nc3ccc(OCc4ccccn4)cc3)ncnc2cc1OCCN1CCC(N(C)C)CC1 [compound 80]", "6.00 to 6.30"],
  ["C=CC(=O)Nc1cc2c(Nc3ccc(OCc4cccnn4)c(Cl)c3)ncnc2cc1OCCN1CC2CCC(C1)O2 [compound 173]", "6.52 to 6.70"],
  ["C=CC(=O)Nc1cc2c(Nc3ccc(OCc4cccc(F)n4)c(Cl)c3)ncnc2cc1OCCN1CCN(C)CC1 [compound 158]", "6.70 to 7.00"],
  ["C=CC(=O)Nc1cc2c(Nc3ccc(OCc4ccccn4)c(Cl)c3)ncnc2cc1C#C[C@H]1CCN(C)C1 [compound 85]", "7.30 to 7.52"]
]}

====

Here, each record is paired with measured IC50 data.
- target_desc: HER2 WT (Homo sapiens, UniProt P04626)
- Sequence (P04626 23-1255): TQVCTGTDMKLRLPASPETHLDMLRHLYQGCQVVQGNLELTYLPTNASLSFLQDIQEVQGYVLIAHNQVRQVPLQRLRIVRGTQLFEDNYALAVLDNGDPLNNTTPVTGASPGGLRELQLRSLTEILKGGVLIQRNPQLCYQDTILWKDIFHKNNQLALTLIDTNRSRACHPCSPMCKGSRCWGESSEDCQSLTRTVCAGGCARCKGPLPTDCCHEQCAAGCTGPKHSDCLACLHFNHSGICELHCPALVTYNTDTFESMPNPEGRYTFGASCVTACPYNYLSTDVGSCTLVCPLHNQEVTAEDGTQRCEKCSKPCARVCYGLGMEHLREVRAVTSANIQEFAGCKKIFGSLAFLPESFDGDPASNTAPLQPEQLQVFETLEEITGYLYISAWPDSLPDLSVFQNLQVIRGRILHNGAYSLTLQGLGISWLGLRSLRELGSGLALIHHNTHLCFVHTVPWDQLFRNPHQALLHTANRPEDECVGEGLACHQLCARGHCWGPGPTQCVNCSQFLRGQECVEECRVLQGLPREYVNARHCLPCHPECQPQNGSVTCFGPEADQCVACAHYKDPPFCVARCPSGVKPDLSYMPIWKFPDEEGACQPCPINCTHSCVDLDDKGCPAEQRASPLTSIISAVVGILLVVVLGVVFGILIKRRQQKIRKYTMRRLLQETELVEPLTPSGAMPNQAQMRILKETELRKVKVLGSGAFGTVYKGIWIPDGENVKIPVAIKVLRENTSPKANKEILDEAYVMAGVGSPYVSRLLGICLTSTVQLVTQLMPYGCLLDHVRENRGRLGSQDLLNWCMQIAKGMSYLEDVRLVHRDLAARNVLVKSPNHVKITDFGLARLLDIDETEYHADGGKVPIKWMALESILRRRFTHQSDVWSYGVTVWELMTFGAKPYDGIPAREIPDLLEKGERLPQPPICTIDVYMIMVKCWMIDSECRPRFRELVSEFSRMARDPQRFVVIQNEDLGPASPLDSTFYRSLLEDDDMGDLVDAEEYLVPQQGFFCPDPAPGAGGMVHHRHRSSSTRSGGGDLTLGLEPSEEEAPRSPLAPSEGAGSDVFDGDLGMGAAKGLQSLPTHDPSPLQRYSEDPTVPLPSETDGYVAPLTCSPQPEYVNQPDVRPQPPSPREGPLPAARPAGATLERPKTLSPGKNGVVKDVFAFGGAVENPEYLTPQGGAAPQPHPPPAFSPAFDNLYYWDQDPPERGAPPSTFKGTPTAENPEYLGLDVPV
- assay_procedure: BaF3 cell proliferation assay, HER2 WT (Table B)
- Assay type: cell-based
- measurement_conditions: potency code, 3 days, CellTiterGlo, read-out: HER2 WT (Activity for Inhibiting HER2)

{"columns": ["compound", "IC50"],
 "data": [
  ["C=CC(=O)Nc1cc2c(Nc3ccc(OCc4ccccn4)c(Cl)c3)ncnc2cc1OCCN1CC(F)C1", "10 to 20 nM"],
  ["C=CC(=O)Nc1cc2c(Nc3ccc(OCc4ccccn4)c(Cl)c3)ncnc2cc1OCCCN1CCOCC1", "< 5 nM"],
  ["C=CC(=O)Nc1cc2c(Nc3ccc(OCc4ccccn4)c(Cl)c3)ncnc2cc1C#CC(C)(C)N1CCN(C)CC1", "10 to 20 nM"],
  ["C=CC(=O)Nc1cc2c(Nc3ccc(OCc4ccccn4)c(Cl)c3)ncnc2cc1N(C)CCN1CCOCC1", "100 to 200 nM"],
  ["C=CC(=O)Nc1cc2c(Nc3ccc(OCc4ccccn4)c(Cl)c3)ncnc2cc1N1CCC(N(C)C)CC1", "10 to 20 nM"],
  ["C=CC(=O)Nc1cc2c(Nc3cc(Cl)c(OCc4ccccn4)cc3F)ncnc2cc1OCCN1CCOCC1", "5 to 10 nM"],
  ["C=CC(=O)Nc1cc2c(Nc3ccc(OCc4ccccn4)c(Cl)c3)ncnc2cc1OCCN1CC2COCC2C1 (centres unmarked)", "5 to 10 nM"],
  ["C=CC(=O)Nc1cc2c(Nc3ccc(OCc4ccccn4)c(Cl)c3)c(C#N)cnc2cc1OCCN1CCOCC1", "30 to 50 nM"],
  ["C=CC(=O)Nc1cc2c(Nc3cc(Cl)c(OCc4cccc(F)c4)cc3F)ncnc2cc1OCCN1CCOCC1", "5 to 10 nM"],
  ["C=CC(=O)Nc1cc2c(Nc3ccc(OCc4ccccn4)c(Cl)c3)ncnc2cc1OCC1CCCN1C (centres unmarked)", "10 to 20 nM"],
  ["C=CC(=O)Nc1cc2c(Nc3ccc(OCc4ccccn4)c(Cl)c3)ncnc2cc1N1CCC2(CCN(C)C2)C1 (centres unmarked)", "20 to 30 nM"],
  ["C=CC(=O)Nc1cc2c(Nc3ccc(OCc4ccccn4)c(Cl)c3)ncnc2cc1C#CC(C)(C)N(C)C", "50 to 100 nM"],
  ["C=CC(=O)Nc1cc2c(Nc3ccc(OCc4ccccn4)c(Cl)c3)ncnc2cc1OC1CC(N(C)C)C1 (centres unmarked)", "< 5 nM"],
  ["C=CC(=O)Nc1cc2c(Nc3ccc(OCc4ccccn4)c(Cl)c3)ncnc2cc1OCCCN1CC2CC1CO2 (centres unmarked)", "< 5 nM"],
  ["C=CC(=O)Nc1cc2c(Nc3ccc(OCc4ccccn4)c(Cl)c3)ncnc2cc1OCCN1CC2CC1CO2 (centres unmarked)", "5 to 10 nM"],
  ["C=CC(=O)Nc1cc2c(Nc3ccc(OCc4ccccn4)c(Cl)c3)ncnc2cc1N1CC2CCN(C)C2C1 (centres unmarked)", "50 to 100 nM"],
  ["C=CC(=O)Nc1cc2c(Nc3ccc(OCc4ccccn4)c(Cl)c3)ncnc2cc1OCCN1C2CCC1COC2", "5 to 10 nM"],
  ["C=CC(=O)Nc1cc2c(Nc3cc(Cl)c(OCc4ccccn4)cc3F)ncnc2cc1OC1CCN(C)C1 (centres unmarked)", "5 to 10 nM"],
  ["C=CC(=O)Nc1cc2c(Nc3ccc(OCc4ccccn4)c(Cl)c3)ncnc2cc1N1CCN2CCC1C2 (centres unmarked)", "50 to 100 nM"],
  ["C=CC(=O)Nc1cc2c(Nc3ccc(OCc4ccccn4)c(Cl)c3)ncnc2cc1OCCN1CC2(CCO2)C1", "5 to 10 nM"]
]}

====

Here, each record is paired with measured IC50 data.
- target_desc: EGFR NPH (Homo sapiens, UniProt P00533, DUP771-773)
- Construct: expressed in transfected cells; host or cells: BaF3 (murine pro-B), retroviral pMXs-IRES-Blasticidin
- Sequence (P00533 with tags, fused parts or gaps DUP771-773): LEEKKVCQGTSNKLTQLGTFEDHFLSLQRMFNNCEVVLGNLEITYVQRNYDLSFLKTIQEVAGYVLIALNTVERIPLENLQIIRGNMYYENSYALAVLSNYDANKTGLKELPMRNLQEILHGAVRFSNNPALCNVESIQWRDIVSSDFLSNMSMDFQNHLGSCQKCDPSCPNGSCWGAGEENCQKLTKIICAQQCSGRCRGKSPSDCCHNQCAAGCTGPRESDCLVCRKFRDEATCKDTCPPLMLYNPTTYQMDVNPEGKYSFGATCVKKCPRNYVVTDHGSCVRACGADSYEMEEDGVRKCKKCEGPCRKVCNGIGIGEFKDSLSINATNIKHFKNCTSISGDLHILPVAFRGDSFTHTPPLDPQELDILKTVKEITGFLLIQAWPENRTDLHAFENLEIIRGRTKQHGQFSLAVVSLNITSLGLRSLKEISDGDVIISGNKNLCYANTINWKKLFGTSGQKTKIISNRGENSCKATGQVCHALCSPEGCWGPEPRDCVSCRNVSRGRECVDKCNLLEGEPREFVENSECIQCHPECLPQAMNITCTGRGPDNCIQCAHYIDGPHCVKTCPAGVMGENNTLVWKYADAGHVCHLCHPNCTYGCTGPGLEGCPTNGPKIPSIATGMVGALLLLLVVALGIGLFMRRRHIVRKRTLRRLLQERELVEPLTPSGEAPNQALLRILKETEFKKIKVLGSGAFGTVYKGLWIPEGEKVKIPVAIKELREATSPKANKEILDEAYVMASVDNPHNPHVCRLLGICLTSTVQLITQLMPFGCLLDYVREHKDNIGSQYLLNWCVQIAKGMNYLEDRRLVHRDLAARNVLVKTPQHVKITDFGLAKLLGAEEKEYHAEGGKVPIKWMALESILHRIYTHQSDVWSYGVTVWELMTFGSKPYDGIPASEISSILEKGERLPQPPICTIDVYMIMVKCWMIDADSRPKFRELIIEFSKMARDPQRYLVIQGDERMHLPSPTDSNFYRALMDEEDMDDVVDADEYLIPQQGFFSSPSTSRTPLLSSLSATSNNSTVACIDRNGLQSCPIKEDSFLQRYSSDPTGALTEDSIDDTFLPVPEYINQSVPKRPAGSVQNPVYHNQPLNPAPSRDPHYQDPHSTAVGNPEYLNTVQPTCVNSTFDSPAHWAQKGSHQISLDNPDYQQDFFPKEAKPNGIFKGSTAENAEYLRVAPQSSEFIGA
- assay_procedure: BaF3 cell proliferation assay, EGFR NPH (Table A)
- Format: cell-based
- measurement_conditions: potency code, 3 days, CellTiterGlo, read-out: EGFR NPH (Activity for Inhibiting EGFR)
property_measured: IC50

{"columns": ["compound", "property_measured", "observed_measurement"],
 "data": [
  ["C=CC(=O)Nc1cc2c(Nc3ccc(OCc4ccccn4)c(Cl)c3)ncnc2cc1C#C[C@@H]1[C@H]2CN(C)C[C@@H]12", "IC50", "30 to 50 nM"],
  ["C=CC(=O)Nc1cc2c(Nc3ccc(OCc4ccccn4)c(Cl)c3)ncnc2cc1OCCN1CC2(CCO2)C1", "IC50", "50 to 100 nM"],
  ["C=CC(=O)Nc1cc2c(Nc3ccc(OCc4ccccn4)c(Cl)c3)ncnc2cc1OCCCN1CC2CC1CO2 (stereo not shown)", "IC50", "10 to 20 nM"],
  ["C=CC(=O)Nc1cc2c(Nc3ccc(OCc4ccccn4)c(Cl)c3)ncnc2cc1OCCN1CC(OC)C1", "IC50", "50 to 100 nM"],
  ["C=CC(=O)Nc1cc2c(Nc3ccc(OCc4ccccn4)c(Cl)c3)ncnc2cc1OCC1CCCN1 (stereo not shown)", "IC50", "300 to 500 nM"],
  ["C=CC(=O)Nc1cc2c(Nc3ccc(OCc4ccccn4)c(Cl)c3)ncnc2cc1OCCN1CC2CC1CO2 (stereo not shown)", "IC50", "50 to 100 nM"],
  ["C=CC(=O)Nc1cc2c(Nc3ccc(OCc4ccccn4)c(Cl)c3)ncnc2cc1N1CC2CN(C)CC2C1 (stereo not shown)", "IC50", "500 to 1000 nM"],
  ["C=CC(=O)Nc1cc2c(Nc3ccc(OCc4ccccn4)c(Cl)c3)ncnc2cc1OCCN1CCOCC1", "IC50", "30 to 50 nM"],
  ["C=CC(=O)Nc1cc2c(Nc3ccc(OCc4ccccn4)c(Cl)c3)ncnc2cc1O[C@@H]1CCN(C)C1", "IC50", "20 to 30 nM"],
  ["C=CC(=O)Nc1cc2c(Nc3ccc(OCc4ccccn4)c(Cl)c3)ncnc2cc1C#CC(C)(C)N(C)C", "IC50", "100 to 200 nM"],
  ["C=CC(=O)Nc1cc2c(Nc3ccc(OCc4ccccn4)c(Cl)c3)ncnc2cc1OC1CC(N(C)C)C1 (stereo not shown)", "IC50", "30 to 50 nM"],
  ["C=CC(=O)Nc1cc2c(Nc3ccc(OCc4ccccn4)c(Cl)c3)ncnc2cc1OCCCN1CCOCC1", "IC50", "10 to 20 nM"],
  ["C=CC(=O)Nc1cc2c(Nc3ccc(OCc4ccccn4)c(Cl)c3)ncnc2cc1C#C[C@H]1CCN(C)C1", "IC50", "20 to 30 nM"],
  ["C=CC(=O)Nc1cc2c(Nc3ccc(OCc4ccccn4)c(Cl)c3)ncnc2cc1OCCN1CC2COCC2C1 (stereo not shown)", "IC50", "50 to 100 nM"],
  ["C=CC(=O)Nc1cc2c(Nc3ccc(OCc4ccccn4)c(Cl)c3)ncnc2cc1OCCN1CCN(C)CC1", "IC50", "10 to 20 nM"],
  ["C=CC(=O)Nc1cc2c(Nc3ccc(Oc4ccc(C)nc4)c(C)c3)ncnc2cc1OC1CCN(C)C1 (stereo not shown)", "IC50", "500 to 1000 nM"],
  ["C=CC(=O)Nc1cc2c(Nc3ccc(OCc4ccccn4)c(Cl)c3)ncnc2cc1OCC1(N(C)C)CC1", "IC50", "100 to 200 nM"],
  ["C=CC(=O)Nc1cc2c(Nc3ccc(OCc4ccccn4)c(Cl)c3)ncnc2cc1OCCN(C)C1CCOC1 (stereo not shown)", "IC50", "50 to 100 nM"],
  ["C=CC(=O)Nc1cc2c(Nc3ccc(OCc4ccccn4)c(Cl)c3)ncnc2cc1OC1CN(C)C1", "IC50", "20 to 30 nM"]
]}
